system: 855422-203-R-J1-PDC spheroids with HUVEC/MSC, viability; test: Anticancer human tumor 855422-203-R-J1-PDC patient-derived bladder carcinoma cell line growth inhibition [PI3K]; conditions: second compound 0.0316 µM; first compound 0.316 µM; active compounds read low;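 further: agents incubated with spheroids for one week before read-out; 100% = DMSO vehicle-treated control wells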
assayEndpoint: viability, T/C (%)
Numeric only. Scale: %

Sample answers from the record:
CCCS(=O)(=O)Nc1ccc(F)c(C(=O)c2c[nH]c3ncc(-c4ccc(Cl)cc4)cc23)c1F + CC(Nc1ncnc2nc[nH]c12)c1cc2cccc(Cl)c2c(=O)n1-c1ccccc1
102
CCCS(=O)(=O)Nc1ccc(F)c(C(=O)c2c[nH]c3ncc(-c4ccc(Cl)cc4)cc23)c1F + CC(Nc1ccc2c(c1)OCCn1cc(N3C(=O)OCC3C(F)F)nc1-2)C(N)=O
98.7
C[C@@H](NC(=O)c1ncnc(N)c1Cl)c1ncc(C(=O)Nc2cc(C(F)(F)F)c(Cl)cn2)s1 + CC(Nc1ccc2c(c1)OCCn1cc(N3C(=O)OCC3C(F)F)nc1-2)C(N)=O
102
CC(C)NCC(C(=O)N1CCN(c2ncnc3c2C(C)CC3O)CC1)c1ccc(Cl)cc1 (stereo not given) + CC(Nc1ncnc2nc[nH]c12)c1cc2cccc(Cl)c2c(=O)n1-c1ccccc1
83.9

--- query ---
The value of viability, T/C measured for the molecule C=CC(=O)N1CCN(c2nc(=O)n(-c3c(C)ccnc3C(C)C)c3nc(-c4c(O)cccc4F)c(F)cc23)C(C)C1 (stereo not given) + COc1c(OCCCN2CCOCC2)ccc2c3n(c(=NC(=O)c4cnc(N)nc4)nc12)CCN3 turned out to be 66
